Study Target: Gal3S(b1-4)[Fuc(a1-3)]Glc
Assay Summary: glycan array binding signal (z-score within array); higher = stronger binding
Run Conditions: glycan notation: IUPAC condensed, linker removed
Shown is part of a subset that was picked to be rich in the strongest signals.
Value Type: glycan array binding signal (z-score)

# annotated cases, reported glycan array binding signal (z-score) shown
Binder: CIH1 (Colletotrichum higginsianum) (protein) LPQATPTTPTPTSASAAATISATSSPTCSPGPVIDYTVVSGDTLTIISQRFSSGICNIADASGITNPNFLSLGQVLQVPTYVCTPDNTSCLAKEGSDTCVEGGPATHTIVAGDTFFLVAQSLGLDVNALLAANEGVDPLLLQIGDVINIPVC
Value Type: glycan array binding signal (z-score)
Value: -0.081
//
Binder: Ecp6 (Cladosporium fulvum), B3VBK9 (protein) MQSMILFAAALMGAAVNGFVLPRTDDPDCETKATDCGSTSNIKYTVVKGDTLTSIAKKFKSGICNIVSVNKLANPNLIELGATLIIPENCSNPDNKSCVSTPAEPTETCVPGLPGSYTIVSGDTLTNISQDFNITLDSLIAANTQIENPDAIDVGQIITVPVCPSSQCEAVGTYNIVAGDLFVDLAATYHTTIGQIKALNNNVNPSKLKVGQQIILPQDCKNVTTAVA
Value Type: glycan array binding signal (z-score)
Value: -0.084
//
Binder: AFL (Aspergillus fumigatus), Q4WW81 (protein) STPGAQQVLFRTGIAAVNLTNHLRVYFQDVYGSIRESLYEGSWANGTEKNVIGNAKLGSPVAATSKELKHIRVYTLTEGNTLQEFAYDSGTGWYNGGLGGAKFQVAPYSRIAAVFLAGTDALQLRIYAQKPDNTIQEYMWNGDGWKEGTNLGGALPGTGIGATSFRYTDYNGPSIRIWFQTDDLKLVQRAYDPHKGWYPDLVTIFDRAPPRTAIAATSFGAGNSSIYMRIYFVNSDNTIWQVCWDHGKGYHDKGTITPVIQGSEVAIISWGSFANNGPDLRLYFQNGTYISAVSEWVWNRAHGSQLGRSALPPA
Value Type: glycan array binding signal (z-score)
Value: 0.328

Shifting focus to the binder that follows.
Using known records, supply glycan array binding signal (z-score) for GNAT (Pseudomonas aeruginosa), Q9HV14 (protein) MQLSHRPAETGDLETVAGFPQDRDELFYCYPKAIWPFSVAQLAAAIAERRGSTVAVHDGQVLGFANFYQWQHGDFCALGNMMVAPAARGLGVARYLIGVMENLAREQYKARLMKISCFNANAAGLLLYTQLGYQPRAIAERHDPDGRRVALIQMDKPLEP
-0.301
